This document collects IC50 values reported for cAMP and cAMP-inhibited cGMP 3',5'-cyclic phosphodiesterase 10A (Homo sapiens).
measure: IC50 (nM)

INSERT INTO assay_data (structure_string, tested_on, measure, value_units, result_value) VALUES
  ('COc1cc2nncc(-c3cnc(N4CCC(C(C)(C)O)CC4)c(C(F)F)c3)c2cc1OC', 'cAMP and cAMP-inhibited cGMP 3'',5''-cyclic phosphodiesterase 10A (Homo sapiens)', 'IC50', 'nM', 1.2);

(I) COc1cc2nncc(-c3ccc(NC4CC4)nc3)c2cc1OC
(II) COc1cc2nncc(-c3ccc(N4CCC(O)(c5ccccn5)CC4)nc3)c2cc1OC
(III) COc1cc2nncc(-c3ccc(C(F)(F)F)nc3)c2cc1OC
(IV) C=Cc1cc(-c2cnnc3cc(OC)c(OC)cc23)cnc1NC(C)C
(V) COc1cc2nncc(-c3ccc(N)nc3)c2cc1OC
IN: Please list these in order of increasing IC50. Thank you! A complete answer lists every label in the requested sequence.
OUT: IV, II, I, V, III
